assay: Antiproliferative activity against human Bel7402 cells assessed as inhibition of cell proliferation incubated for 48 hrs by CCK8 assay; type: functional, cell-based; conditions: Bel-7402, 48 h
recorded endpoint: IC50 (µM)
The reply should contain only the number, in µM.

IC50 in this record for `O=C(/C=C/c1ccc(Cl)c(Cl)c1)c1ccc(OCc2cn([C@H]3CC(=O)N4C[C@@H]5CCCN6CCC[C@@H]([C@H]56)[C@H]4C3)nn2)cc1O` : 12.4

IC50 in this record for `O=C(/C=C/c1ccc(F)cc1)c1ccc(OCc2cn([C@H]3CC(=O)N4C[C@@H]5CCCN6CCC[C@@H]([C@H]56)[C@H]4C3)nn2)cc1O` : 9.02

----------
tested on: MCF7; assay: Antiproliferative activity against human MCF7 cells assessed as inhibition of cell proliferation incubated for 48 hrs by CCK8 assay; assay type: functional, cell-based; conditions: MCF7, 48 h
The threshold is 10 µM. Values of IC50 beneath it are tagged t; values meeting or exceeding it are tagged f.

State whether 10 µM exceeds IC50 recorded for O=c1[nH]cc(F)c(=O)[nH]1 [FLUOROURACIL] .
t

State whether 10 µM exceeds IC50 recorded for `O=C(/C=C/c1ccccc1)c1ccc(OCc2cn([C@H]3CC(=O)N4C[C@@H]5CCCN6CCC[C@@H]([C@H]56)[C@H]4C3)nn2)cc1O` .
f

State whether 10 µM exceeds IC50 recorded for `O=C(/C=C/c1ccc(Cl)c(Cl)c1)c1ccc(OCc2cn([C@H]3CC(=O)N4C[C@@H]5CCCN6CCC[C@@H]([C@H]56)[C@H]4C3)nn2)cc1` .
f

State whether 10 µM exceeds IC50 recorded for `O=C(/C=C/c1ccc(Cl)cc1)c1ccc(OCc2cn([C@H]3CC(=O)N4C[C@@H]5CCCN6CCC[C@@H]([C@H]56)[C@H]4C3)nn2)cc1O` .
f
